- testedTarget: IDH1 wt/IDH1 R132H heterodimer (Homo sapiens (Human), UniProt O75874, R132H)
- Sequence (O75874 whole entry R132H): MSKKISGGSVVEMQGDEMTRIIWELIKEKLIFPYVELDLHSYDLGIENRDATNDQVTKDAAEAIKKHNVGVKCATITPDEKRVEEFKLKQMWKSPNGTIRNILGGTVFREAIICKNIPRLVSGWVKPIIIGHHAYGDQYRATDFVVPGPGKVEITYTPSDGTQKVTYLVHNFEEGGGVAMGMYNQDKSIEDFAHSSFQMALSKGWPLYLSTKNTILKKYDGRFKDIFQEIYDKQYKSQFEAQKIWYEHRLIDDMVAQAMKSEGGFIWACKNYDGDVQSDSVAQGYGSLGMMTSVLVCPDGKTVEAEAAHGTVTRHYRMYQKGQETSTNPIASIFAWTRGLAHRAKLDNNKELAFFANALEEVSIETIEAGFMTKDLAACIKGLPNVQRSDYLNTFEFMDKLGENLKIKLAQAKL
- Sequence (O75874 whole entry, stated change not applied): as the sequence (O75874 whole entry R132H) above, with H132R counted along it
- assayDetails: In vitro assay for IDH1m R132H inhibitors, IDH1 wt/IDH1 R132H heterodimer, NADPH depletion (diaphorase/resazurin)
- Assay type: biochemical
- experimentalParameters: IDH1 wt/R132H heterodimer, NADPH/NADP, not saturated; read-out: IDH1 wt/R132H NADPH/NADP IC50 not saturated
- Method: The following describes the experimental procedures that can be used to obtain data on columns 2 and 4 of Table 4 and column 2 of Table 5. In the primary reaction, the reduction of α-KG acid to 2-HG is accompanied by a concomitant oxidation of NADPH to NADP. The amount of NADPH remaining at the end of the reaction time is measured in a secondary diaphorase/resazurin reaction in which the NADPH is consumed in a 1:1 molar ratio with the conversion of resazurin to the highly fluorescent resorufin. […]
measuredMetric: IC50

Here's what some known entries look like.
(Q) What value of IC50 has been recorded for this entry: FC1(F)CCC(Nc2nc(NC3Cc4cc(Br)cc(Br)c4C3)nc(-c3cccc(C(F)(F)F)n3)n2)C1 (stereo not shown)
(A) 50 to 100 nM

(Q) What do we get for FC1(F)CCC(Nc2nc(NC3CN(c4cccnc4)C3)nc(-c3cccc(C(F)(F)F)n3)n2)C1 (stereo not shown) ?
(A) 50 to 100 nM

(Q) What do we get for Cc1nc(-c2nc(NC3CCC(F)(F)CC3)nc(NC3CCC(F)(F)CC3)n2)co1 ?
(A) > 1000 nM

Now for another entry.
(Q) What value of IC50 has been recorded for this entry: FC1(F)CC(Nc2nc(NC3CC(F)(F)C3)nc(-c3cncc(Cl)n3)n2)C1
(A) < 50 nM

----------
- Tested on: HT1080 cells
- assayDetails: Cellular assay for IDH1m R132C inhibitors, 2-HG by LC-MS in HT1080 cells
- Assay type: cell-based
- experimentalParameters: Homo sapiens, HT-1080
- Procedure: The following describes the experimental procedures that can be used to obtain data on column 5 of Table 4. Cells (HT1080 or U87MG) are grown in T125 flasks in DMEM containing 10% FBS, 1× penicillin/streptomycin and 500 ug/mL G418 (present in U87MG cells only). […] At 48 hours, 100 ul of media is removed from each well and analyzed by LC-MS for 2-HG concentrations. […] The plate is then read for luminescence with an integration time of 500 ms. […]
pIC50: −log10 of the molar value.
measuredMetric: pIC50

(Q) Query pIC50 on HT1080 cells for Fc1cc(F)cc(Nc2nc(NC3CC(F)(F)C3)nc(-c3nc(C(F)(F)F)cs3)n2)c1
(A) 6.00 to 7.00

(Q) What do we get for CC(Nc1nc(NC(C)C(F)(F)F)nc(-c2cccc(Cl)n2)n1)C(F)(F)F (stereo not drawn) ?
(A) > 7.30

(Q) What do we get for CC(Nc1nc(Nc2cc(F)cc(C#N)c2)nc(-n2ccc(C(F)(F)F)n2)n1)C(F)(F)F (stereo not drawn) ?
(A) 7.00 to 7.30

(Q) What do we get for COc1ccc2c(c1)CC(Nc1nc(NC3CCC(F)(F)C3)nc(-c3cccc(C(F)(F)F)n3)n1)C2 (stereo not drawn) ?
(A) 6.00 to 7.00

(Q) What do we get for CCC(Nc1nc(NC(CC)C2CC2)nc(-c2cccc(Cl)n2)n1)C1CC1 (stereo not drawn) ?
(A) 7.00 to 7.30

Source listed as patent US10028961B2.
